Data origin: patent US20200377595A1

# system: T1, biotin-labeled cynomolgus monkey CD137 fused to human IgG1 Fc fragment (cynomolgus monkey; human, UniProt Q07011 24-186, limits assumed, biotin-labeled)
# T1 construct: also called cyno CD137-Fc; not shown: human IgG1 Fc fragment
# T1 chain: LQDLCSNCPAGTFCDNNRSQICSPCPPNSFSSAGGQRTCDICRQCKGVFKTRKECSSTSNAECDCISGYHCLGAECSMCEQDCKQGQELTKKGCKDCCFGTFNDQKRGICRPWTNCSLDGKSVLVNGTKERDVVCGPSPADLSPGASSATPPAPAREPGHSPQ
# procedureText: ELISA, IgG

{"binder": "dBBDu183 (antibody, IgG1, V domains shown, IgG1) VH: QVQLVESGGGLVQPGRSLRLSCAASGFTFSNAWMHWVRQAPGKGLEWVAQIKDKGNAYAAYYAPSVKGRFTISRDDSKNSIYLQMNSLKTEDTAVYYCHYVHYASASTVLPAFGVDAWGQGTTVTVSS VL: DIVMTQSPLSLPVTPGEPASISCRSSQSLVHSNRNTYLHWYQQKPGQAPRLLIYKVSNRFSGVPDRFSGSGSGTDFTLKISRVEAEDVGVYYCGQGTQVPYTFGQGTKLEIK", "binding result": "binds"}
{"binder": "dBBDu181 (antibody, IgG1, V domains shown, IgG1) VH: QVQLVESGGGLVQPGRSLRLSCAASGFTFSNAWMHWVRQAPGKGLEWIAQIKDRGNNYNNYYAPSVKGRFTISRDDSKNSIYLQMNSLKTEDTAVYYCHYVHYATASTLLGAYGVDAWGQGTTVTVSS VL: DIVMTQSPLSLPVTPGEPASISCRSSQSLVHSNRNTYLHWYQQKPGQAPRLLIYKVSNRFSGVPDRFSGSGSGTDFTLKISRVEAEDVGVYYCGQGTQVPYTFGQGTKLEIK", "binding result": "binds"}
{"binder": "dBBDu186 (antibody, IgG1, V domains shown, IgG1) VH: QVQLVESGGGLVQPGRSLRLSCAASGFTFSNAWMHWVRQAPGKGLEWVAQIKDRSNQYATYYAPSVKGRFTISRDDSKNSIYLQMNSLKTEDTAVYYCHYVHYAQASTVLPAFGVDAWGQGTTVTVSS VL: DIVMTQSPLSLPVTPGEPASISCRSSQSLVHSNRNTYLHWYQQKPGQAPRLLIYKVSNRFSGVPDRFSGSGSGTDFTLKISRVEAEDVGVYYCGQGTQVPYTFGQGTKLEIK", "binding result": "binds"}
